// provenance: patent US12624096B2

A collection of molecules and their measured Critical residues of the epitope
# Test system: alanine substituted 13mer tau peptides
# assayDetails: Alanine scanning mutagenesis (ASM) peptide ELISA
# Format: binding, human
# studyConditions: numbering according to SEQ ID NO: 1; description text 'may be'

Param item = CA9: anti-tau clone, SEQ ID NO: 371 (protein, CA9 amino acid sequence) scFv: QVQLQESGPSLVKPSQTLSLTCTVSGFSLTSNSVGWVRQAPGKAPEWVAGIDTDGEEGYNPALNSRLSITRDTSKSQVSLSLSSVTSEDTAVYYCGRSYRSDGLAYGYVQAIDYWGPGLLVTVSSEGKSSGASGESKVDDQAVLTQPASVSGSLGQRVSITCSGSFIGISSVGWFQQLPGSGLRTIIVASDGRPSGVPDRFSMSKSGNTATLTISSLQAEDEADYFCGSSDRTQYTGVFGSGTRLTVLG ; retrieve measured Critical residues of the epitope.
370 (K), and/or 374 (H)

Param item = CA12: anti-tau clone, SEQ ID NO: 372 (protein, CA12 amino acid sequence) scFv: QVQLQGSGPSLVKPSQTLSLTCTVSGFSFDSYYVGWVRQAPGKALEWLGNIYSTGRAFYNPALKSRLSITRDTSKSQVSLSVSSVTIEDTALYYCVRGSYYHGGGNGMVDFFDYWSPGLLVTVSSEGKSSGASGESKVDDQVVRTQPSSVSGSLGQRVSITCSGSSSNVGYGNYVGWFQQVPGSAPKLLIYAATSRASGVPDRFSGSRSGNTATLTIDSLQAEDEADYYCSSYQRGNTGVFGSGTRLTVLG ; retrieve measured Critical residues of the epitope.
370 (K), and/or 374 (H)

Param item = S1G2: anti-tau clone, SEQ ID NO: 81 (protein, S1G2 amino acid sequence) scFv: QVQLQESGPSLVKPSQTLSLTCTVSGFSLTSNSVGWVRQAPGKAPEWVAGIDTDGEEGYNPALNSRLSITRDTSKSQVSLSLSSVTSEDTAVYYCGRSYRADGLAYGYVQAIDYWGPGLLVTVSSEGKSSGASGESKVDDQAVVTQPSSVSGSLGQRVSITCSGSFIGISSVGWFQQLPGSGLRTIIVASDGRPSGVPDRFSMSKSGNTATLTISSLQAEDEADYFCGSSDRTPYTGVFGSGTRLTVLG ; retrieve measured Critical residues of the epitope.
370 (K) and/or 374 (H)

Okay, now this molecule:
Param item = S1D12: anti-tau clone from immunised sheep, SEQ ID NO: 32 (protein, S1D12 amino acid sequence) scFv: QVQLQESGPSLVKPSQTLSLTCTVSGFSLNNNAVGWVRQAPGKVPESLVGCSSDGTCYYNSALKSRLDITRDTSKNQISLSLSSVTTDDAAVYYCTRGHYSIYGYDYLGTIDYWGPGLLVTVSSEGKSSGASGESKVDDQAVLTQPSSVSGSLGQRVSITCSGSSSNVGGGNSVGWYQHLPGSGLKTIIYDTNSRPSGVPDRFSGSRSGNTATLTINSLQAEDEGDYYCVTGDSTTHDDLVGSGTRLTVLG ; retrieve measured Critical residues of the epitope.
343 (K), 346 (F) and/or 349 (R)
